# protocol: Toxic dose required to inhibit the replication of HIV-1 in C8166 T-cells
# Type: ADME, cell-based
# measurement_context: human, read-out: TD50 (the source's name)
# maps each entry to its CC50
measured_property: CC50

1) CC(=O)O[C@H]1C[C@H](n2cc(C)c(=O)[nH]c2=O)O[C@@H]1CO :: > 200 µM
2) Cc1cn([C@H]2C[C@H](OC(=O)C(C)C)[C@@H](COP(=O)(OCC(Cl)(Cl)Cl)OCC(Cl)(Cl)Cl)O2)c(=O)[nH]c1=O :: > 200 µM
3) CCC(=O)O[C@H]1C[C@H](n2cc(C)c(=O)[nH]c2=O)O[C@@H]1COP(=O)(OCC(Cl)(Cl)Cl)OCC(Cl)(Cl)Cl :: 80 µM
4) Cc1cn([C@H]2C[C@H](OC=O)[C@@H](COP(=O)(OCC(Cl)(Cl)Cl)OCC(Cl)(Cl)Cl)O2)c(=O)[nH]c1=O :: > 200 µM
5) Cc1cn([C@H]2C[C@H](OC(=O)CCl)[C@@H](COP(=O)(OCC(Cl)(Cl)Cl)OCC(Cl)(Cl)Cl)O2)c(=O)[nH]c1=O :: 50 µM
6) CC(=O)O[C@H]1C[C@H](n2cc(C)c(=O)[nH]c2=O)O[C@@H]1COP(=O)(OCC(Cl)(Cl)Cl)OCC(Cl)(Cl)Cl :: > 200 µM
7) CCCC(=O)O[C@H]1C[C@H](n2cc(C)c(=O)[nH]c2=O)O[C@@H]1COP(=O)(OCC(Cl)(Cl)Cl)OCC(Cl)(Cl)Cl :: 80 µM
8) Cc1cn([C@H]2C[C@H](OC(=O)C(Cl)(Cl)Cl)[C@@H](COP(=O)(OCC(Cl)(Cl)Cl)OCC(Cl)(Cl)Cl)O2)c(=O)[nH]c1=O :: > 200 µM
9) Cc1cn([C@H]2C[C@H](N=[N+]=[N-])[C@@H](CO)O2)c(=O)[nH]c1=O [ZIDOVUDINE] :: > 200 µM
